Give viability, T/C for every item shown.
# Test system: 945468-187-T-J3-PDC spheroids with HUVEC/MSC, viability
# EXPERIMENT_SUMMARY: Anticancer human tumor 945468-187-T-J3-PDC patient-derived rectal carcinoma cell line growth inhibition [PI3K]
# CONDITIONS_USED: second compound 0.0316 µM; first compound 1 µM; active compounds read low
# Text: Combinatorial screen of targeted agents with the PI3K inhibitors inavolisib, alpelisib, duvelisib, and copanlisib in multi-cell type tumor spheroids A high-throughput screen of multi-cell type tumor spheroids was designed to identify active combinations of targeted small molecules and PI3K pathway inhibitors. […] Compounds. […] If the clinical Cmax for an agent had not been determined, the highest concentration tested was 10 microM. […]
Answers are plain numbers, in %.

For orientation, consider the following solved cases.
COMPOUND	MEASURED_NUMBER
C#Cc1c(F)ccc2cc(O)cc(-c3ncc4c(N5CC6CCC(C5)N6)nc(OCC56CCCN5CC(F)C6)nc4c3F)c12 (stereo not given) + CC(Nc1ccc2c(c1)OCCn1cc(N3C(=O)OCC3C(F)F)nc1-2)C(N)=O	118
CC(C)NCC(C(=O)N1CCN(c2ncnc3c2C(C)CC3O)CC1)c1ccc(Cl)cc1 (stereo not given) + COc1c(OCCCN2CCOCC2)ccc2c3n(c(=NC(=O)c4cnc(N)nc4)nc12)CCN3	71.8
CCN1CCN(Cc2ccc(Nc3ncc(F)c(-c4cc(F)c5nc(C)n(C(C)C)c5c4)n3)nc2)CC1 + Cc1nc(NC(=O)N2CCCC2C(N)=O)sc1-c1ccnc(C(C)(C)C(F)(F)F)c1	105
Cn1nccc1Nc1nccc(-c2ccn(C(CO)c3ccc(Cl)c(F)c3)c(=O)c2)n1 (stereo not given) + COc1c(OCCCN2CCOCC2)ccc2c3n(c(=NC(=O)c4cnc(N)nc4)nc12)CCN3	85.6

Now take the following compound into account.
Entry CC1(C)CCC(Nc2ncc(C(F)(F)F)c(-c3c[nH]c4c(P(C)(C)=O)c(C#N)ccc34)n2)CN1 (stereo not given) + CC(Nc1ccc2c(c1)OCCn1cc(N3C(=O)OCC3C(F)F)nc1-2)C(N)=O — recorded viability, T/C = 79.8

----------
# Test system: 945468-187-T-J3-PDC spheroids with HUVEC/MSC, viability
# EXPERIMENT_SUMMARY: Anticancer human tumor 945468-187-T-J3-PDC cell line growth inhibition [PI3K];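 also: spheroids exposed to agents for 7 days before viability read; 100% = DMSO vehicle control viability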
# CONDITIONS_USED: second compound 10 µM; first compound 3.16 µM; active compounds read low
Hi! Could you tag entries with viability, T/C below 70% as met, and those at or above as not met? Much appreciated.

COMPOUND	GROUP_LABEL
CC1(C)CCC(CN2CCN(c3ccc(C(=O)NS(=O)(=O)c4ccc(NCC5CCOCC5)c([N+](=O)[O-])c4)c(Oc4cnc5[nH]ccc5c4)c3)CC2)=C(c2ccc(Cl)cc2)C1 + CC(Nc1ncnc2nc[nH]c12)c1cc2cccc(Cl)c2c(=O)n1-c1ccccc1	not met
C=CC(=O)N1CCN(c2nc(=O)n(-c3c(C)ccnc3C(C)C)c3nc(-c4c(O)cccc4F)c(F)cc23)C(C)C1 (stereo not given) + Cc1nc(NC(=O)N2CCCC2C(N)=O)sc1-c1ccnc(C(C)(C)C(F)(F)F)c1	not met
CC(C)NCC(C(=O)N1CCN(c2ncnc3c2C(C)CC3O)CC1)c1ccc(Cl)cc1 (stereo not given) + Cc1nc(NC(=O)N2CCCC2C(N)=O)sc1-c1ccnc(C(C)(C)C(F)(F)F)c1	met
Cn1nccc1Nc1nccc(-c2ccn(C(CO)c3ccc(Cl)c(F)c3)c(=O)c2)n1 (stereo not given) + Cc1nc(NC(=O)N2CCCC2C(N)=O)sc1-c1ccnc(C(C)(C)C(F)(F)F)c1	met
Cn1ncc(Cl)c1-c1cc(C(=O)NC(CN)Cc2cccc(F)c2)sc1Cl (stereo not given) + Cc1nc(NC(=O)N2CCCC2C(N)=O)sc1-c1ccnc(C(C)(C)C(F)(F)F)c1	met
CC(Cn1ccc(-c2ccc(C#N)c(Cl)c2)n1)NC(=O)c1cc(C(C)O)[nH]n1 (stereo not given) + Cc1nc(NC(=O)N2CCCC2C(N)=O)sc1-c1ccnc(C(C)(C)C(F)(F)F)c1	met
CCCS(=O)(=O)Nc1ccc(F)c(C(=O)c2c[nH]c3ncc(-c4ccc(Cl)cc4)cc23)c1F + CC(Nc1ncnc2nc[nH]c12)c1cc2cccc(Cl)c2c(=O)n1-c1ccccc1	not met
Cn1nccc1Nc1nccc(-c2ccn(C(CO)c3ccc(Cl)c(F)c3)c(=O)c2)n1 (stereo not given) + CC(Nc1ncnc2nc[nH]c12)c1cc2cccc(Cl)c2c(=O)n1-c1ccccc1	not met

Query compound follows.
Consider CC1(C)CCC(CN2CCN(c3ccc(C(=O)NS(=O)(=O)c4ccc(NCC5CCOCC5)c([N+](=O)[O-])c4)c(Oc4cnc5[nH]ccc5c4)c3)CC2)=C(c2ccc(Cl)cc2)C1 + Cc1nc(NC(=O)N2CCCC2C(N)=O)sc1-c1ccnc(C(C)(C)C(F)(F)F)c1 . Does its viability, T/C lie strictly below 70%?
met

----------
# Test system: 945468-187-T-J3-PDC spheroids with HUVEC/MSC, viability
# EXPERIMENT_SUMMARY: Anticancer human tumor 945468-187-T-J3-PDC cell line growth inhibition [PI3K];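 also: spheroids exposed to agents for 7 days before viability read; 100% = DMSO vehicle control viability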
# CONDITIONS_USED: compound 0.01 µM; active compounds read low
PROPERTY_NAME: viability, T/C

// worked examples, viability, T/C included
MOLECULE	TESTED_SYSTEM	PROPERTY_NAME	RESULT
CC(C)n1nc(-c2ccc3oc(N)nc3c2)c2c(N)ncnc21	945468-187-T-J3-PDC spheroids with HUVEC/MSC, viability	viability, T/C	102% [middle of 4 runs]
COc1c(OCCCN2CCOCC2)ccc2c3n(c(=NC(=O)c4cnc(N)nc4)nc12)CCN3	945468-187-T-J3-PDC spheroids with HUVEC/MSC, viability	viability, T/C	96.8% [middle of 8 runs]
CC(=O)c1c(C)c2cnc(Nc3ccc(N4CCNCC4)cn3)nc2n(C2CCCC2)c1=O	945468-187-T-J3-PDC spheroids with HUVEC/MSC, viability	viability, T/C	93.4% [middle of 4 runs]

Reported viability, T/C ( CC(Nc1ccc2c(c1)OCCn1cc(N3C(=O)OCC3C(F)F)nc1-2)C(N)=O (centres undefined) ) = 97.2% [middle of 7 runs]

----------
# Tested on: 945468-187-T-J3-PDC spheroids with HUVEC/MSC, viability
# EXPERIMENT_SUMMARY: Anticancer human tumor 945468-187-T-J3-PDC cell line growth inhibition [PI3K];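 also: spheroids exposed to agents for 7 days before viability read; 100% = DMSO vehicle control viability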
# CONDITIONS_USED: second compound 0.0316 µM; first compound 10 µM; active compounds read low
Field 'label' (enum: MET / NOT MET). Set to MET when viability, T/C is strictly under 40%; else NOT MET.

MOLECULE	GROUP_LABEL
CC1(C)CCC(CN2CCN(c3ccc(C(=O)NS(=O)(=O)c4ccc(NCC5CCOCC5)c([N+](=O)[O-])c4)c(Oc4cnc5[nH]ccc5c4)c3)CC2)=C(c2ccc(Cl)cc2)C1 + CC(Nc1ccc2c(c1)OCCn1cc(N3C(=O)OCC3C(F)F)nc1-2)C(N)=O	NOT MET
Cn1nccc1Nc1nccc(-c2ccn(C(CO)c3ccc(Cl)c(F)c3)c(=O)c2)n1 (stereo not given) + CC(Nc1ccc2c(c1)OCCn1cc(N3C(=O)OCC3C(F)F)nc1-2)C(N)=O	NOT MET
CC1(C)CCC(Nc2ncc(C(F)(F)F)c(-c3c[nH]c4c(P(C)(C)=O)c(C#N)ccc34)n2)CN1 (stereo not given) + CC(Nc1ccc2c(c1)OCCn1cc(N3C(=O)OCC3C(F)F)nc1-2)C(N)=O	MET

Strictly below 40%: is that where viability, T/C of Cn1ncc(Cl)c1-c1cc(C(=O)NC(CN)Cc2cccc(F)c2)sc1Cl (stereo not given) + CC(Nc1ncnc2nc[nH]c12)c1cc2cccc(Cl)c2c(=O)n1-c1ccccc1 sits?
MET

Lab log: compare recorded viability, T/C with 40%; is it strictly lower for Cn1nccc1Nc1nccc(-c2ccn(C(CO)c3ccc(Cl)c(F)c3)c(=O)c2)n1 (stereo not given) + COc1c(OCCCN2CCOCC2)ccc2c3n(c(=NC(=O)c4cnc(N)nc4)nc12)CCN3 ?
NOT MET

# strict comparison: is reported viability, T/C < 40%? input = Cn1ncc(Cl)c1-c1cc(C(=O)NC(CN)Cc2cccc(F)c2)sc1Cl (stereo not given) + CC(Nc1ccc2c(c1)OCCn1cc(N3C(=O)OCC3C(F)F)nc1-2)C(N)=O
MET

viability, T/C under 40%? Item: C[C@@H](NC(=O)c1ncnc(N)c1Cl)c1ncc(C(=O)Nc2cc(C(F)(F)F)c(Cl)cn2)s1 + Cc1nc(NC(=O)N2CCCC2C(N)=O)sc1-c1ccnc(C(C)(C)C(F)(F)F)c1
NOT MET

I'd appreciate it if you could check whether C[C@@H](NC(=O)c1ncnc(N)c1Cl)c1ncc(C(=O)Nc2cc(C(F)(F)F)c(Cl)cn2)s1 + CC(Nc1ncnc2nc[nH]c12)c1cc2cccc(Cl)c2c(=O)n1-c1ccccc1 has viability, T/C smaller than 40%.
NOT MET

Confirm or reject: viability, T/C of C#Cc1c(F)ccc2cc(O)cc(-c3ncc4c(N5CC6CCC(C5)N6)nc(OCC56CCCN5CC(F)C6)nc4c3F)c12 (stereo not given) + Cc1nc(NC(=O)N2CCCC2C(N)=O)sc1-c1ccnc(C(C)(C)C(F)(F)F)c1 lies strictly below 40%
NOT MET
